- Test system: Staphylococcus epidermidis
- assay_remarks: Antibacterial activity against Staphylococcus epidermidis ATCC 35547 assessed as effect on planktonic growth at 0.17 ug/ml after 20 hrs relative to control
- Type: functional
attribute_measured: Activity (%)
Give just the numeric value; % need not be written.

# example entries with known answers
COc1ccccc1C1=C(Br)C(=O)N(CC(C)C)/C1=C\c1ccc(C(F)(F)F)cc1	-22.1
COc1ccc(Cl)cc1C1=C(Br)C(=O)N(CC(C)C)/C1=C\c1ccccc1Br	-2.5
COc1ccc(C)cc1C1=C(Br)C(=O)N(CC(C)C)C1(O)Cc1cccc(Cl)c1 (centres undefined)	3.5

Lookup: Param readout= Activity; system= Staphylococcus epidermidis; entry= COc1ccc(Cl)cc1C1=C(Br)C(=O)O/C1=C\c1ccccc1Br ; returns value.
Found: 9.5

Lookup: Tell me reported Activity for COc1ccc(C)cc1C1=C(Br)C(=O)O/C1=C\c1cccc(Cl)c1 , tested with Staphylococcus epidermidis.
Found: 13.2

Lookup: Provide the documented Activity with Staphylococcus epidermidis as the system for COc1ccc(Br)cc1C1=C(Br)C(=O)N(CC(C)C)/C1=C\c1cccc(Cl)c1
Found: 2.2

###

- Tested on: Pseudomonas aeruginosa
- assay_remarks: Antibacterial activity against Pseudomonas aeruginosa ATCC 27853 assessed as effect on planktonic growth at 10.9 ug/ml after 20 hrs relative to control
- Format: functional
attribute_measured: Activity

COc1cccc(CC2(O)C(c3cc(Cl)ccc3OC)=C(Br)C(=O)N2CC(C)C)c1 (centres undefined)	-3.3%
COc1ccc(Cl)cc1C1=C(Br)C(=O)N(CC(C)C)/C1=C\c1ccccc1Br	-11.5%
COc1ccc(Cl)cc1C1=C(Br)C(=O)O/C1=C\c1ccccc1Br	-5.2%
COc1ccc(Br)cc1C1=C(Br)C(=O)N(CC(C)C)C1(O)Cc1cccc(Cl)c1 (centres undefined)	3.2%
COc1ccccc1C1=C(Br)C(=O)N(CC(C)C)/C1=C\c1ccc(C(F)(F)F)cc1	35.6%
COc1ccc(Br)cc1C1=C(Br)C(=O)O/C1=C\c1ccc(Br)cc1	-17.6%
COc1ccccc1C1=C(Br)C(=O)O/C1=C\c1ccc(C(F)(F)F)cc1	49.9%
COc1ccc(Br)cc1C1=C(Br)C(=O)O/C1=C\c1cccc(Cl)c1	-16.9%

Lookup: Requested field: Activity. Item: COc1ccc(Br)cc1C1=C(Br)C(=O)N(CC(C)C)/C1=C/c1cccc(Cl)c1
Found: -7%

###

- Tested on: Staphylococcus epidermidis
- assay_remarks: Antibacterial activity against Staphylococcus epidermidis ATCC 35547 assessed as effect on planktonic growth at 21.9 ug/ml after 20 hrs relative to control
- Type: functional
As shown below, each of these compounds has a reported Activity value.
Please respond with the number in % and leave the unit unwritten.

Reference set, count: 3
COc1ccc(Br)cc1C1=C(Br)C(=O)N(CC(C)C)C1(O)Cc1cccc(Cl)c1 (stereo unspecified)	30.2
COc1ccc(Br)cc1C1=C(Br)C(=O)N(CC(C)C)/C1=C\c1ccc(Br)cc1	32.6
COc1ccccc1C1=C(Br)C(=O)O/C1=C\c1ccc(C(F)(F)F)cc1	18.7

Lookup: I'd like to know its Activity. The compound in question is COc1ccc(Cl)cc1C1=C(Br)C(=O)O/C1=C\c1ccccc1Br
Found: 27.3

Lookup: So what does the record say about Activity for COc1ccc(C)cc1C1=C(Br)C(=O)N(CC(C)C)/C1=C\c1cccc(Cl)c1 ?
Found: -38.6

Lookup: Any idea what Activity was measured for COc1cccc(/C=C2\OC(=O)C(Br)=C2c2cc(Cl)ccc2OC)c1 ?
Found: -1.3

Lookup: Find the recorded Activity belonging to COc1ccc(C)cc1C1=C(Br)C(=O)O/C1=C\c1cccc(Cl)c1 and report it.
Found: 8.9

Lookup: Entry under review: COc1ccccc1C1=C(Br)C(=O)N(CC(C)C)C1(O)Cc1ccc(C(F)(F)F)cc1 (stereo unspecified) . Reported Activity?
Found: 13.8

Lookup: Param item = COc1ccc(C)cc1C1=C(Br)C(=O)N(CC(C)C)C1(O)Cc1cccc(Cl)c1 (stereo unspecified) ; retrieve measured Activity.
Found: -7.3

Lookup: Reported Activity for COc1ccc(Cl)cc1C1=C(Br)C(=O)N(CC(C)C)/C1=C\c1ccccc1Br : what is it?
Found: 2.1

Lookup: Requested field: Activity. Item: COc1ccccc1C1=C(Br)C(=O)N(CC(C)C)/C1=C\c1ccc(C(F)(F)F)cc1
Found: 38.7
